molecular target: human IL-23R (Homo sapiens, UniProt Q5VWK5); construct: Nanoluc luciferase (Nluc); secretion signal encoded by the plasmid (not specified); crude membranes used in the assay; assay: Binding assay: displacement of fluorophore (TAMRA)-labelled reference compound from human IL-23R (BRET, Nluc-IL23R fusion protein membranes)
Sequence (Q5VWK5 22-629): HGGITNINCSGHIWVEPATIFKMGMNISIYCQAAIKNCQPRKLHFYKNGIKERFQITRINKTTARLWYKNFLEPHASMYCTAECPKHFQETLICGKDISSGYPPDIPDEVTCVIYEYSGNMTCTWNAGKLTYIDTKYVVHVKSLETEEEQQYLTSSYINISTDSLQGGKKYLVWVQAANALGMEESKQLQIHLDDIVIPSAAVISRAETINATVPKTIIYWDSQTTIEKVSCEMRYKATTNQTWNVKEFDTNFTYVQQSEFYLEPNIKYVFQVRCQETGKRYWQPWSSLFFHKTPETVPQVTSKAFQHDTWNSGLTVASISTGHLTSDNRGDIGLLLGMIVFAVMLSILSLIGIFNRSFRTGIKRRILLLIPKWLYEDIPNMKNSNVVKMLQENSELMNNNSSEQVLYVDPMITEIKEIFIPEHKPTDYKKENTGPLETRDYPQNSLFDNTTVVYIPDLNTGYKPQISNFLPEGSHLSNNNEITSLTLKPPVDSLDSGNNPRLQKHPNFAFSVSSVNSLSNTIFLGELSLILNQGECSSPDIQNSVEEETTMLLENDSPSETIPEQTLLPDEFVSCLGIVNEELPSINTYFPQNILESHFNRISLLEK
*1 amine or outer side, *2 acyl side, *3 side chain or, on linkers, in order; H or OH if unused. Where a SMILES comes first, the peptide text is derived from it. Bridges are numbered along the chain shown (N, C = ends). [ ]: non-standard residue; d: D form. 2Nal = N[C@@H](Cc1ccc2ccccc2c1)C(=O)O; AEF = NCCOc1ccc(C[C@H](N)C(=O)O)cc1; X1 = O=C(Cc1ccc(CN[*:1])cc1)[*:2]; 3Pal = N[C@@H](Cc1cccnc1)C(=O)O; αMeL = CC(C)C[C@](C)(N)C(=O)O; Dab = NCC[C@H](N)C(=O)O
IC50 by entry:
Report the figure in nM without appending any unit label.

Please review the following examples before continuing.
1. CNC(=O)[C@H](Cc1cccnc1)NC(=O)[C@H](CCN)NC(=O)[C@@H]1CCC(=O)NCc2ccc(cc2)CC(=O)N[C@@H](C)C(=O)N[C@H]2CCC(=O)NCC[C@H](NC(=O)[C@H](CCC(N)=O)NC(=O)[C@H](Cc3c[nH]c4ccccc34)NC2=O)C(=O)N[C@@H](Cc2ccc(OCCN)cc2)C(=O)N[C@@H](CC2CC2)C(=O)NC(C)(C)C(=O)N1 [Compound 42]: 12
2. CNC(=O)[C@H](Cc1cccnc1)NC(=O)[C@H](CCN)NC(=O)[C@@H]1CCC(=O)NCc2ccc(cc2)CC(=O)N[C@@H](CO)C(=O)N[C@H]2CCC(=O)NCC[C@H](NC(=O)[C@H](Cc3ccccc3)NC(=O)[C@H](Cc3c[nH]c4ccccc34)NC2=O)C(=O)N[C@@H](Cc2ccc(OCCN)cc2)C(=O)N[C@@H](Cc2ccc3ccccc3c2)C(=O)N[C@@](C)(CC(C)C)C(=O)N1 [Compound 23] ([X1]SEWF[Dab][AEF][2Nal][αMeL]E[Dab][3Pal]-NHMe; lactam 3-6, N-10): 0.12

Report IC50 for CC(C)C[C@]1(C)NC(=O)[C@H](Cc2ccc3ccccc3c2)NC(=O)[C@H](Cc2ccc(OCCN)cc2)NC(=O)[C@@H]2CCNC(=O)CC[C@H](NC(=O)[C@H](CO)NC(=O)Cc3ccc(cc3)CNC(=O)CC[C@@H](C(=O)NC[C@H](N[C@@H](Cc3cccnc3)C(N)=O)C(F)(F)F)NC1=O)C(=O)N[C@@H](Cc1c[nH]c3ccccc13)C(=O)N[C@@H](CCC(N)=O)C(=O)N2 [Compound 17] please. 1.2

---

molecular target: human IL-23R (Homo sapiens); construct: Nanoluc luciferase (Nluc); secretion signal encoded by the plasmid (not specified); expressed in transfected cells; crude membranes used in the assay; assay: Binding assay: displacement of fluorophore (TAMRA)-labelled reference compound from human IL-23R (BRET, Nluc-IL23R fusion protein membranes); details: read-out: % displacement (hIL-23R binding)
Emax by entry:
Report the figure in % without appending any unit label.

Please review the following examples before continuing.
1. CC(C)C[C@]1(C)NC(=O)[C@H](Cc2ccc3ccccc3c2)NC(=O)[C@H](Cc2ccc(OCCN)cc2)NC(=O)[C@@H]2CCNC(=O)CC[C@H](NC(=O)[C@H](CO)NC(=O)Cc3ccc(cc3)CNC(=O)CC[C@@H](C(=O)NC[C@H](N[C@@H](Cc3cccnc3)C(N)=O)C(F)(F)F)NC1=O)C(=O)N[C@@H](Cc1c[nH]c3ccccc13)C(=O)N[C@@H](CCC(N)=O)C(=O)N2: 98
2. CNC(=O)[C@H](Cc1cccnc1)NC(=O)[C@H](CCN)NC(=O)[C@@H]1CCC(=O)NCc2ccc(cc2)CC(=O)N[C@@H](C)C(=O)N[C@H]2CCC(=O)NCC[C@H](NC(=O)[C@H](CCC(N)=O)NC(=O)[C@H](Cc3c[nH]c4ccccc34)NC2=O)C(=O)N[C@@H](Cc2ccc(OCCN)cc2)C(=O)N[C@@H](Cc2cnc3ccccc3c2)C(=O)NC(C)(C)C(=O)N1: 89
3. CC(C)C[C@]1(C)NC(=O)[C@H](Cc2ccc3ccccc3c2)NC(=O)[C@H](Cc2ccc(OCCN)cc2)NC(=O)[C@@H]2CCNC(=O)CC[C@H](NC(=O)[C@H](CO)NC(=O)Cc3ccc(cc3)CNC(=O)CC[C@@H](C(=O)N[C@@H](CCN)C(=O)N[C@H](Cc3c[nH]cn3)C(N)=O)NC1=O)C(=O)N[C@@H](Cc1c[nH]c3ccccc13)C(=O)N[C@@H](CCC(N)=O)C(=O)N2: 100
4. CC(C)C[C@]1(C)NC(=O)[C@H](Cc2ccc3ccccc3c2)NC(=O)[C@H](Cc2ccc(OCCN)cc2)NC(=O)[C@@H]2CCNC(=O)CC[C@H](NC(=O)[C@H](CO)NC(=O)Cc3ccc(cc3)CNC(=O)CC[C@@H](C(=O)NCC[C@H](N)C(=O)N[C@@](C)(Cc3cccnc3)C(N)=O)NC1=O)C(=O)N[C@@H](Cc1c[nH]c3ccccc13)C(=O)N[C@@H](CCC(N)=O)C(=O)N2: 96
5. CNC(=O)[C@H](Cc1cccnc1)NC(=O)[C@H](CCN)NC(=O)[C@@H]1CCC(=O)NCc2ccc(cc2)CC(=O)N[C@@H](CO)C(=O)N[C@H]2CCC(=O)NCC[C@H](NC(=O)[C@H](CCC(N)=O)NC(=O)[C@H](Cc3c[nH]c4ccccc34)NC2=O)C(=O)N[C@@H](Cc2ccc(OCCN)cc2)C(=O)N[C@@H](Cc2ccc3ccccc3c2)C(=O)N[C@@](C)(CC(C)C)C(=O)N1: 103

Report Emax for CC(C)C[C@@H]1NC(=O)[C@H](Cc2c[nH]c3ccccc23)NC(=O)[C@H](Cc2c[nH]c3ccccc23)NC(=O)[C@@H]2CSCC(=O)CSC[C@H](NC(=O)[C@H]([C@@H](C)O)NC(=O)[C@@H](NC(=O)CN)CSCC(=O)CSC[C@@H](C(=O)N[C@@H](CO)C(N)=O)NC1=O)C(=O)N[C@@H](Cc1c[nH]c3ccccc13)C(=O)N[C@@H](CCC(=O)O)C(=O)N2 (single isomer, unassigned) [I1 (isomer 3), H-GC(1a)TC(2a)WEC(2a)WWLC(1a)S-[NH2], reference compound] please. 105
